Reference source for all entries: paper PMC2756588

- Measured Target: GST
- Test Name: SPOT array
- Condition Info: median of control spots 978
Metric Name: SPOT intensity

QGYPRQPQRPQRYHP: 1
DLFKPLPEPPTELGR: 0
RRLRDKYKLPIVDAD: 0
LYEAMPPTLPHRDWK: 0
VKPRQLFPIPLNKVD: 0

a: VYTRTAFQIPGDDKI
b: FPGKKSPRLPHRNKK
c: EVTPKVPERPSRRKT
// sort entries: SPOT intensity, high to low Reply: labels, ordered per the request.
a, b, c

a: SKSRLLIELPEGFFT
b: PSRRDSLSIPRAVDA
Which has the higher SPOT intensity, a or b ? Lab note: record the label of whichever item you select.
b
(b: 2, a: 0)

P: VLRFLGFPLPIFEKG
Q: NQARKPFLLPATELS
R: RRARRQMGIPTISQV
// sort entries: SPOT intensity, high to low Reply: labels, ordered per the request.
R, Q, P

a: SSSSTPPTLPPRRIE
b: YVRRRPRVRLEPLLS
Which has the higher SPOT intensity, a or b ? Lab note: record the label of whichever item you select.
b
